- Tested on: LATS1
- testSettings: concentration: 1 μM,replicates: in singlicate; n = 1
testReadout: %Inh (%)
Dear colleague, please return just the value in %, with no unit written.

Examples with answers:
O=C1NCCc2[nH]c(-c3ccncc3)cc21 :: 23
Cc1n[nH]c2cc(Nc3ccnc(Nc4cccc(CN5CCOCC5)c4)n3)ccc12 [GW682569] :: 0
CS(=O)c1ccc(-c2coc3ccc(-c4n[nH]c(=O)o4)cc23)cc1 (stereo not shown) :: 11
CS(=O)(=O)c1cccc(CNc2nc(Nc3ccc4c(c3)[C@@H]3C[C@@H]4CNC3=O)ncc2C(F)(F)F)c1 :: 24
CS(=O)(=O)Nc1ccc(-c2ccnc3[nH]ccc23)cc1 [GSK993273] :: 42
COC(=O)c1cccc(NC(=O)NC2CCN(c3ccnc(NCc4ccc(F)cc4)n3)CC2)c1 [GSK1379860] :: 0

// switching to the query compound
Tell me %Inh of Cn1ccc2ncnc(Oc3ccc(NC(=O)Nc4cncc(C(F)(F)F)c4)c(Cl)c3)c21 when tested on LATS1.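 Further: KINOMEscan kinase panel screen.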
0
